Biological target: Tyrosine-protein kinase Yes (Homo sapiens)
Assay: qHTS for small molecule inhibitors of Yes1 kinase: Primary Screen (AID 686947); note: nearly all actives have a fitted effect of over 60% in size; note: potency is the fitted concentration of half-maximal effect
Conditions: Yes1 kinase biochemical qHTS inhibition; series mostly up to 76.9 µM
Records with an inconclusive call do not appear. Activity calls are given as the source filed them. Calls come from the whole dose curve; as a rule, active = well fitted inhibition curve with a large enough effect; inconclusive = small, poorly fitted or top-dose-only effect; inactive = no such curve, though single readings can be large or run the other way.
endpoint name: Potency

smiles structure: CN1CCC(CNc2ccc3ncc(-c4cccc(OC(F)(F)F)c4)n3n2)CC1
Potency: 97.2 nM (active)
//
smiles structure: COc1ccc2c(c1)CC[C@@H](CN(C)CC(=O)O)[C@H]2c1ccccc1
Potency: inactive
//
smiles structure: CCCCc1nc2cc(C=CC(=O)NO)ccc2n1CCN(CC)CC
Potency: inactive
//
smiles structure: O=C(C=Cc1cccnc1)NCCCCC1CCN(C(=O)c2ccccc2)CC1
Potency: inactive
//
smiles structure: C1Cc2[nH]nc(-c3nn[nH]n3)c2C1
Potency: inactive
//
smiles structure: COc1ccc(C=Cc2cc(OC)c(OC)c(OC)c2)cc1O
Potency: inactive
//
smiles structure: Cn1c(=O)n(-c2ccc(C(C)(C)C#N)cc2)c2c3cc(-c4cnc5ccccc5c4)ccc3ncc21
Potency: inactive
//
smiles structure: COc1ccc(OC)c(-c2nnc3ccc(-c4ccc(OC)c(O[C@@H]5CCOC5)c4)nn23)c1
Potency: inactive

Give one value of Potency per listed compound.
1. Cc1ccc(C(=O)Nc2cccc(C(F)(F)F)c2)cc1-c1ccc2nc(NCCN3CCOCC3)ncc2c1
2. O=C(c1ccc(Nc2nccc(-c3cc4ccccc4s3)n2)cc1)N1CCC(N2CCCC2)CC1

1: 7.7 nM (active); 2: 68.8 nM (active)

Give one value of Potency per listed compound.
1. CC(C)(C)c1cc(NC(=O)Nc2ccc(-c3cn4c(n3)sc3cc(OCCN5CCOCC5)ccc34)cc2)no1
2. Nc1nc(Nc2ccc(S(N)(=O)=O)cc2)nn1C(=O)c1c(F)cccc1F
3. Cc1[nH]c2ccccc2c1CCNCc1ccc(C=CC(=O)NO)cc1
4. O=C(O)c1ccc2c(c1)nc(Nc1cccc(Cl)c1)c1ccncc12
5. Nc1cc(C(F)(F)F)c(-c2cc(N3CCOCC3)nc(N3CCOCC3)n2)cn1
6. COc1cc2ncnc(Nc3ccc(F)c(Cl)c3)c2cc1NC(=O)C=CCN1CCCCC1
7. O=C(O)[C@H](Cc1c[nH]c2ccccc12)N1C(=O)c2ccccc2C1=O

["inactive", "772 nM (active)", "13700 nM (active)", "487 nM (active)", "inactive", "194 nM (active)", "inactive"]

Give one value of Potency per listed compound.
1. CCN(CC)CCCCNc1ncc2cc(-c3cc(OC)cc(OC)c3)c(NC(=O)NC(C)(C)C)nc2n1
2. COc1cccc2nc(-c3cccs3)nc(NN3C(=O)C=C(C)C3=O)c12
3. CCCCN1CCC(CNC(=O)c2c3n(c4ccccc24)CCCO3)CC1

9720 nM (active)
inactive
inactive

Query: Potency; subject: CCC[C@H](NC(=O)C(C#N)=Cc1cccc(Br)n1)c1ccccc1 inactive

----------
Assay: qHTS profiling of the MIPE4 collection as inhibitors of Plasmodium falciparum (3D7) proliferation (AID 743344);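 note: scaled between DMSO vehicle wells and 0.29 µM artemisinin as full inhibition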
Conditions: P. falciparum 3D7 in erythrocytes, SYBR Green DNA fluorescence, 72 h; at 28.5 µM (top of the series) unless noted
Hi there, I'd appreciate the recorded parasite growth, % of DMSO control for every entry that follows.
One number for each entry, in %.

For orientation, consider the following solved cases.
smiles structure: COc1cccc2c(NCc3ccccc3)nc(-n3c(N)nc4ccccc43)nc12
endpoint name: parasite growth, % of DMSO control
output unit: %
meas value: 5.92
--
smiles structure: Cc1ccc(C(=O)Nc2ccc(CN3CCN(C)CC3)c(C(F)(F)F)c2)cc1C#Cc1cnc2cccnn12
endpoint name: parasite growth, % of DMSO control
output unit: %
meas value: 6.07
--
smiles structure: CC=C1NC(=O)[C@H]2CSSCCC=C[C@H](CC(=O)N[C@H](C(C)C)C(=O)N2)OC(=O)[C@H](C(C)C)NC1=O
endpoint name: parasite growth, % of DMSO control
output unit: %
meas value: 5.8
--
smiles structure: Cc1cnc(Nc2ccc(F)cc2Cl)nc1-c1c[nH]c(C(=O)N[C@H](CO)c2cccc(Cl)c2)c1
endpoint name: parasite growth, % of DMSO control
output unit: %
meas value: 7.48
--
smiles structure: Cc1cc(Nc2cc(NC(=O)c3c(Cl)cccc3Cl)ccn2)nc(N)n1
endpoint name: parasite growth, % of DMSO control
output unit: %
meas value: 5.6
--
smiles structure: Cn1c(=O)n(-c2ccc(C(C)(C)C#N)cc2)c2c3cc(-c4cnc5ccccc5c4)ccc3ncc21
endpoint name: parasite growth, % of DMSO control
output unit: %
meas value: 5.06
--
smiles structure: COC(=O)c1ccc2c(C(=Nc3ccc(N(C)C(=O)CN4CCN(C)CC4)cc3)c3ccccc3)c(O)[nH]c2c1
endpoint name: parasite growth, % of DMSO control
output unit: %
meas value: 6.36
--
smiles structure: Cc1c(NC(=O)OC[C@@H]2COCCN2)cn2ncnc(Nc3ccc4c(cnn4Cc4cccc(F)c4)c3)c12
endpoint name: parasite growth, % of DMSO control
output unit: %
meas value: 5.88

Give one value of parasite growth, % of DMSO control per listed compound.
1. CC(C)c1cc(-c2n[nH]c(=O)n2-c2ccc3c(ccn3C)c2)c(O)cc1O
2. CC(C)c1cnn2c(NCc3ccccc3)cc(N[C@@H](CO)[C@H](O)CO)nc12
3. O=C(Nc1cc(C(F)(F)F)cc(C(F)(F)F)c1)c1cc(Cl)ccc1O
4. NC(=O)c1c(OCc2c(F)cc(Br)cc2F)nsc1NC(=O)NCCCCN1CCCC1
5. Nc1cc(C(F)(F)F)c(-c2cc(N3CCOCC3)nc(N3CCOCC3)n2)cn1
6. CC(C)c1noc(N2CCC(COc3ccc(-c4ccc(S(C)(=O)=O)cc4)nc3)CC2)n1
7. Cc1cc(CN2CCN(c3c(Br)cnc4nc(-c5ccc(N6CCN(C)CC6)cc5)[nH]c34)CC2)no1
8. NC(=O)Nc1cc(-c2cccc(F)c2)sc1C(=O)N[C@H]1CCCNC1

1: 5.55; 2: 21.9; 3: 5.26; 4: 47.5; 5: 19.5; 6: 22.7; 7: 15.7; 8: 7.3

Query: parasite growth, % of DMSO control; subject: C[C@]1(CO)CN(c2cc(C(=O)Nc3ccc4c(c3)-c3c(c(C(N)=O)nn3-c3ccc(F)cc3)CC4)c(Cl)cn2)C[C@@]1(C)CO 11.4

----------
Assay: Quantitative High-Throughput drug screen in 47 multiple myeloma cell lines against the NCATS MIPE library collection: Karpas620_DSMZ cell viability assay (AID 1918959); note: nearly all actives have a fitted effect of over 30% in size
Conditions: Karpas620 myeloma viability, CellTiter-Glo ATP luminescence, 48 h; series mostly up to 45.8 µM
Inconclusive results are not listed. The source made the active and inactive calls. Calls follow the shape of the dose curve; as a rule, active = well fitted cell-killing curve with a large enough effect; inconclusive = small, poorly fitted or top-dose-only effect, or effect the other way; inactive = no such curve, though single readings can be large or run the other way.
Pick from T for active, F for inactive when you respond.

Answered cases to consult:
smiles structure: Cn1c(CNc2ccc(C(=N)N)cc2)nc2cc(C(=O)N(CCC(=O)O)c3ccccn3)ccc21
discrete label: F

smiles structure: Cc1c(NC(=O)OC[C@@H]2COCCN2)cn2ncnc(Nc3ccc4c(cnn4Cc4cccc(F)c4)c3)c12
discrete label: T

smiles structure: CCCCCCCCCC(=O)N[C@@H](Cc1c[nH]c2ccccc12)C(=O)N[C@H](CC(N)=O)C(=O)N[C@@H](CC(=O)O)C(=O)N[C@@H]1C(=O)NCC(=O)N[C@@H](CCCN)C(=O)N[C@@H](CC(=O)O)C(=O)N[C@H](C)C(=O)N[C@@H](CC(=O)O)C(=O)NCC(=O)N[C@H](CO)C(=O)N[C@@H]([C@@H](C)CC(=O)O)C(=O)N[C@@H](CC(=O)c2ccccc2N)C(=O)O[C@@H]1C
discrete label: F

# fetch the recorded call for COc1cc(OC2CCN(C)CC2)ccc1Nc1ncc2c(n1)n(C1CCCC1)c(=O)n2C here T

# fetch the recorded call for COc1ccc(OC)c(-c2nnc3ccc(-c4ccc(OC)c(O[C@@H]5CCOC5)c4)nn23)c1 here T

# fetch the recorded call for CC(C)c1cnn2c(NCc3ccccc3)cc(N[C@@H](CO)[C@H](O)CO)nc12 here T

----------
Assay: qHTS of pediatric cancer cell lines to identify multiple opportunities for drug repurposing: Confirmatory screen for DAOY cells (AID 1347114); note: nearly all actives have a fitted effect of over 65% in size
Conditions: DAOY medulloblastoma cells viability, cytotoxicity qHTS; series mostly up to 45.9 µM
Inconclusive results are not listed. Calls of active or inactive are those of the source. Calls follow the shape of the dose curve; as a rule, active = well fitted cell-killing curve with a large enough effect; inconclusive = small, poorly fitted or top-dose-only effect; inactive = no such curve, though single readings can be large or run the other way.
Pick from t (active), f (inactive) when you respond.

Answered cases to consult:
compound: CN1CCN(c2cc(C(=O)Nc3ccc4c(c3)-c3c(c(C(N)=O)nn3-c3ccc(F)cc3)CC4)c(Cl)cn2)CC1
discrete label: t

compound: Cc1cc(C(=O)N2CCN(c3cccc(Cl)c3)CC2)n(-c2ccccc2)n1
discrete label: t

# fetch the recorded call for CN1CC[C@@H](c2c(O)cc(O)c3c(=O)cc(-c4ccccc4Cl)oc23)[C@@H](O)C1 here t

# fetch the recorded call for CC(C)[C@H](C(=O)Nc1ccc(C(=O)NO)cc1)c1ccccc1 here t

# fetch the recorded call for CC[C@@H]1C(=O)N(C)c2cnc(Nc3ccc(C(=O)NC4CCC(N5CCN(CC6CC6)CC5)CC4)cc3OC)nc2N1C(C)C (some centres undefined) here f

# fetch the recorded call for C=CCn1c(=O)c2cnc(Nc3ccc(N4CCN(C)CC4)cc3)nc2n1-c1cccc(C(C)(C)O)n1 here t

# fetch the recorded call for CC1(C)OC2=C(C(=O)c3ccccc3C2=O)[C@H](NCc2ccccc2)[C@H]1O here t

# fetch the recorded call for CN[C@H]1CCc2cc(OC)c(OC)c(OC)c2-c2ccc(OC)c(=O)cc21 here t

# fetch the recorded call for COc1cccc2c(NCc3ccccc3)nc(-n3c(N)nc4ccccc43)nc12 here t
